targetEntity: hEP2 (Homo sapiens)
Sequence (P43116 whole entry): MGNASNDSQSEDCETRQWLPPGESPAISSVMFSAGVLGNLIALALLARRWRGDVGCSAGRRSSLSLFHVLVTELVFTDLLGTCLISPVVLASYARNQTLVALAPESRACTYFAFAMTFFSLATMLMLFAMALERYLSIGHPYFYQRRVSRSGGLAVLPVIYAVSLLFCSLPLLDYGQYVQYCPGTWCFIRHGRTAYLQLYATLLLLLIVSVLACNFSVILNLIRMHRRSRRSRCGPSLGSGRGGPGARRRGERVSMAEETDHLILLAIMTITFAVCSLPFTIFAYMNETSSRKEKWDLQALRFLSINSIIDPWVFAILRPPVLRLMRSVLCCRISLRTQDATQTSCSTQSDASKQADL
procedureText: hEP2 flipr assay
Format: cell-based

{"compound": "O=C(O)c1ccc(CCCC2=CC[C@@H](O)[C@@H]2COc2cc(Cl)cc(Cl)c2)s1 [Example 1]", "outputUnit": "nM", "EC50": 424}

====

targetEntity: hEP4 (Homo sapiens, UniProt P35408)
Sequence (P35408 whole entry): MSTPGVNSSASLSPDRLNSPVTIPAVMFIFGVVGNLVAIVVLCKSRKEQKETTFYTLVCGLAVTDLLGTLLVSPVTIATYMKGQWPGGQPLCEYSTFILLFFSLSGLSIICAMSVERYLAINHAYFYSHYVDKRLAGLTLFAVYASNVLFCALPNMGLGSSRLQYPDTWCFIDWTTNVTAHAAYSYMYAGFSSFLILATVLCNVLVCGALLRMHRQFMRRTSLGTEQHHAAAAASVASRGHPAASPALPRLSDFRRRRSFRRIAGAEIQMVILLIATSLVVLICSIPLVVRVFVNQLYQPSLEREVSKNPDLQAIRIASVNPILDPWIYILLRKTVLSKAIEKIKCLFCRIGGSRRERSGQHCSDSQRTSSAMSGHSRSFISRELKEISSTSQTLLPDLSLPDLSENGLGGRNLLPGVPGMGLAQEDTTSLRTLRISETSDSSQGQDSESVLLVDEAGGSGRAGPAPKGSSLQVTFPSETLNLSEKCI
procedureText: hEP4 flipr assay
attributeMeasured: EC50

{"molecule": "O=C(O)c1ccc(CCCC2=CC[C@@H](O)[C@@H]2COc2cc(Cl)cc(Cl)c2)s1 [Example 1]", "result": "> 10 µM"}
